Values were extracted from ChEMBL document CHEMBL5532712.

Experiment: Toxicity in Zebrafish embryo assessed as reduction in viability at 100 uM measured after 24 hrs by microscope based analysis relative to control
Parameters: species or system Danio rerio
Settings: read-out: Activity

[
  {
    "Compound": "CC1=CC(=O)C[C@@H]2[C@@](C)(CC/C(C)=C/C[n+]3cn(C)c4ncnc(N)c43)[C@H](C)CC[C@@]12C",
    "Uom": "%",
    "mortality at 24 h, 100 µM": 100
  },
  {
    "Compound": "C=CCCCCCCCCC[C@@H](O)[C@H](C)N [HALAMINOL A]",
    "Uom": "%",
    "mortality at 24 h, 100 µM": 66.6
  },
  {
    "Compound": "CC1=CCC[C@@H]2[C@@](C)(CC/C(C)=C/Cn3c[n+](C)c4ncnc(N)c43)[C@H](C)CC[C@@]12C",
    "Uom": "%",
    "mortality at 24 h, 100 µM": 100
  }
]
